TARGET_OF_ASSAY: T1, calcineurin expressed as the glutathione S-transferase fusion protein (GST-CN) (UniProt Q08209 2-347)
T1 construct: also called CN-GST; recombinant GST-CN; not shown: glutathione S-transferase (GST) fusion partner
ASSAY_OVERVIEW: fluorescence anisotropy (FA), direct binding of FITC-labeled peptide to GST-CN
Non-standard residues stand in square brackets, D forms with d. Primed or numbered codes have the meaning given here. No end group written: not given here. *: point of attachment. FITC″ = fluorescein isothiocyanate, fluorescein thiocarbamoyl on Lys NZ; FITC = O=C1OC2(c3ccc(O)cc3Oc3cc(O)ccc32)c2ccc(NC(=S)*)cc21; Benzoyl(2,3-Cl2) = O=C(c1cccc(Cl)c1Cl)*; Phe(4-F) = N[C@@H](Cc1ccc(F)cc1)C(=O)O; Tle = CC(C)(C)[C@H](N)C(=O)O; Bz = O=C(c1ccccc1)*; βAla = NCCC(=O)O

BINDER | Kd, nM
{Benzoyl(2,3-Cl2)}-[Tle]I[Tle]ITY[dE][Phe(4-F)]G[βAla]K(FITC) [peptide 13: Dcb-ZIZIT-Tyr-glu-Fpa-Gly-βAla-Lys (FITC)] | 12
{Benzoyl(2,3-Cl2)}-[Tle]I[Tle]ITGPHEEYK(FITC″)-NH2 [peptide 9: Dcb-ZIZITGPHEEYK(FITC)-NH2] | 41
Bz-[Tle]I[Tle]ITGPHEEYK(FITC″)-NH2 [peptide 2: benzoyl-ZIZITGPHEEYK(FITC)-NH2] | 224
cyclohexylcarbonyl-[Tle]I[Tle]ITGPHEEYK(FITC″)-NH2 [peptide 4: cyclohexylcarbonyl-ZIZITGPHEEYK(FITC)-NH2] | 207

The measured values listed here are drawn from patent US20240033318A1.
